Target: HsCPR^62-241 (Homo sapiens, UniProt P16435)
Sequence (P16435 62-241): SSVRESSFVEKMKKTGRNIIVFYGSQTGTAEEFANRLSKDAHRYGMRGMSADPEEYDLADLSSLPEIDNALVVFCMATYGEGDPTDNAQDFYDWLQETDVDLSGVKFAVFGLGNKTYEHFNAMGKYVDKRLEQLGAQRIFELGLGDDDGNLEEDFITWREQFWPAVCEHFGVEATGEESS
Quantity: pKd
Scale: pKd equals -log10([C]), with [C] in mol/L.

# query: pKd of entry "Cc1cc2nc3c(=O)[nH]c(=O)nc-3n(C[C@H](O)[C@H](O)[C@H](O)COP(=O)(O)O)c2cc1C"
7.59

Reference source: paper PMC9890960
